# Tested on: aldose reductase (Rattus norvegicus)
Measurement name: IC50 (nM)
The reply should contain only the number, in nM.

# query: IC50 | item `O=C1NC(=O)[C@@]2(C[C@@H](C(=O)N3CCC(Cc4ccccc4)CC3)Oc3ccc(F)cc32)N1` | system: aldose reductase (Rattus norvegicus)
310

---

# System: Extracted Guinea Pigs' Aortae
# Protocol details: Relaxation of extracted thoracic aorta contracted by KCl or NE
# Parameters: species or system Hartley guinea pigs
# Run conditions: Cavia porcellus; 50% relaxation; contraction by KCl 2.5 x 10^-2M; read-out: IC50(M) Contraction by KCl
Measurement name: IC50

A selection of reference data follows.
>  <Smiles text>
O=C1NC(=O)[C@@]2(C[C@@H](C(=O)N3CCN(C(c4ccccc4)c4ccccc4)CC3)Oc3ccc(F)cc32)N1

>  <Recorded result>
0.00012 M

$$$$
>  <Smiles text>
O=C1NC(=O)[C@@]2(C[C@@H](C(=O)N3CCC(Cc4ccccc4)CC3)Oc3ccc(F)cc32)N1

>  <Recorded result>
1.3e-06 M

$$$$

In the following, a different compound is considered.
Quick one: IC50 of `O=C1NC(=O)[C@@]2(C[C@@H](C(=O)N3CCN(CC=Cc4ccccc4)CC3)Oc3ccc(F)cc32)N1` ?
> 0.001 M

---

# System: Extracted Guinea Pigs' Aortae
# Protocol details: Relaxation of extracted thoracic aorta contracted by KCl or NE
# Parameters: species or system Hartley guinea pigs
# Run conditions: Cavia porcellus, read-out: IC50(M) Contraction by NE
Measurement name: IC50 (M)
The reply should contain only the number, in M.

Quick one: IC50 of COc1cc(/C=C/C(=O)N2CCN(CC(=O)N3CCCC3)CC2)cc(OC)c1OC [Cinepazid, reference compound] ?
0.001
